# Kd listing for each entry below
Target: T1, recombinant human PD-L1-His protein (Origincell Therapeutics Co., Ltd.) (human, UniProt Q9NZQ7 19-238, limits assumed)
T1 construct: not shown: His tag
T1 sequence (Q9NZQ7 19-238 limits assumed): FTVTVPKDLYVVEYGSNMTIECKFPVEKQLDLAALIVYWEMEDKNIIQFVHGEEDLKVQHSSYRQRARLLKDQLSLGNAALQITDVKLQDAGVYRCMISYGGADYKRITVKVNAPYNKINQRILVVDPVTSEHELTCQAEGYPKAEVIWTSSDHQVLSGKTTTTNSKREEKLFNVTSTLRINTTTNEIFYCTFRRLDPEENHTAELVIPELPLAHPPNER
Experiment: BLI (Octet RED384), antibody on AHC sensor, PD-L1-His in solution
Quote the value and follow it with the unit of measurement.

PD-L1 antibody YN-039 (antibody, human IgG1, lambda, V domains shown, full-length IgG1,lambda) VH: QVQLVQSGAEVKKPGSSVKVSCKASRGPFSTYAISWVRQAPGQGLEWMGRIIPILGIANYAQKFQGRVTITADKSTSTAYMELSSLRSEDTAVYYCARTMGEYSYGNYDYWGQGTLVTVSS VL: QSALTQPASVSGSPGQSITISCTGTVSDVGGYNEVSWYQQHPGKAPKLMIYENSIRPSGVSHRFSGSKSGNTASLTISGLQAEDEADYYCQSYDSSLSGTVFGGGTKLTVLG :: 0.485 nM

Briefly, Kd measured for PD-L1 antibody YN-037 (antibody, human IgG1, lambda, V domains shown, full-length IgG1,lambda) VH: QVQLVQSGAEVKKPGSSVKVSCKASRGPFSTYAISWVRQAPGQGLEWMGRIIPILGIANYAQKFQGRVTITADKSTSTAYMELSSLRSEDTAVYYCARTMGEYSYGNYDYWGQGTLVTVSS VL: QSALTQPASVSGSPGQSITISCTGTSSSVGGYREVSWYQQHPGKAPKLMIYENSIRPSGVSHRFSGSKSGNTASLTISGLQAEDEADYYCQSYDSSLSGTVFGGGTKLTVLG : 0.382 nM
